Each record here notes measured IC50.
molecular target: AuroraB (Homo sapiens); construct: 20 μL of AuroraB FL His for a final volume of 41 μL; His; test: AuroraB Homogeneous Time Resolved Fluorescent (HTRF) kinase assay; type: biochemical; details: average; ATP 23 μM; read-out: AurB_IC50_IP (uM Avg)
Sequence (Q96GD4 whole entry): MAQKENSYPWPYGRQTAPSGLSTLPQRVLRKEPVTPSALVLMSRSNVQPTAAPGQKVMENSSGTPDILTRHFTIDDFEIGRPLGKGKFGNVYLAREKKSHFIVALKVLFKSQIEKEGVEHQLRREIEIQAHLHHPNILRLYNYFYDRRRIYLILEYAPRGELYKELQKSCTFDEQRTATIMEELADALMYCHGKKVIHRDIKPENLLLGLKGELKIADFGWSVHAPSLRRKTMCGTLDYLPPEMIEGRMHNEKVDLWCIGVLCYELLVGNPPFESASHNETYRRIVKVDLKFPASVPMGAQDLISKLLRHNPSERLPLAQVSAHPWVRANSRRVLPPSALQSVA

COc1cnc2c(Oc3ccc(NC(=O)c4ccccc4Nc4ccccc4)cc3)ccnc2c1 [Example 15]
< 0.1 µM
COc1cnc2c(Sc3ccc(NC(=O)c4ccccc4NN4CCC(OC)CC4)cc3)ccnc2c1 [Example 22]
< 0.1 µM
COc1cc2nccc(Oc3ccc(NC(=O)c4ccccc4Nc4ccc(F)cc4)cc3)c2cc1OC [Example 11]
< 0.1 µM
CNC(=O)c1cc(Oc2ccc(NC(=O)c3ccccc3Nc3ccccc3)cc2)ccn1 [Example 21]
0.1 to 0.5 µM
COc1cnc2c(Oc3ccc(NC(=O)c4ccccc4NN4CCCCC4)cc3)ccnc2c1 [Example 20]
0.1 to 0.5 µM
COc1cc2nccc(Oc3ccc(NC(=O)c4ccccc4Nc4ccccc4)cc3F)c2cc1OC [Example 16]
< 0.1 µM
COc1cnc2c(Oc3ccc(NC(=O)c4cc(F)ccc4Nc4ccccc4)cc3)ccnc2c1 [Example 14]
< 0.1 µM
COc1cnc2c(Sc3ccc(NC(=O)c4ccccc4NN4CCCCC4)cc3)ccnc2c1 [Example 19]
< 0.1 µM
COc1cc2nccc(Oc3ccc(NC(=O)c4ccccc4Nc4ccccc4)cc3)c2cc1OC [Example 12]
< 0.1 µM
COc1cc2nccc(Oc3ccc(NC(=O)c4ccccc4Nc4cccc(F)c4)cc3)c2cc1OC [Example 13]
< 0.1 µM

q: Dear colleague, please send me the reported IC50 for Nc1nccc(Oc2ccc(NC(=O)c3ccccc3Nc3ccc(F)cc3)cc2)n1 [Example 18] when you can.
a: 0.1 to 0.5 µM

q: Return reported IC50. Input compound: COc1ccc2c(Oc3ccc(NC(=O)c4ccccc4Nc4ccccc4)cc3F)ccnc2c1 [Example 17]
a: < 0.1 µM
